We begin with a simple list: items and their reported apparent Kd.
# Test system: MS2 coat protein
# assay.remarks: apparent Kd, MS2 coat protein; higher = weaker binding; RNA-MaP array; FMN 200 µM where present
# particulars: ligand present: flavin mononucleotide; designed as: OFF switch for flavin mononucleotide

# biopolymer.sequence, test.system, apparent Kd [nM]
rows = [
    ("GGCGGGCACACUGGCCGCUGAAGGAGAAGGCAGUGCACAUGAGGAUCACCCAUGUCGCGUGUGCCUGAGGAUAUCCGUAAAACG", "MS2 coat protein", 71.4),
    ("UAAAGACAUGAGGAUCACCCAUGUGAGGAUAUCGGAGGUGACGGAGCGUCGAGUUCGGCGAGAAGGCGCAGGAA", "MS2 coat protein", 53.9),
    ("UGUGCGUUGAUCUUCGAUCGGUGUACAUGAGGAUCACCCAUGUAGGAUAUUCAAAGACGCAGAUAGGAGAAGGACAUCGGAUUU", "MS2 coat protein", 17),
    ("GGAUAGGACAGAGGAUAUACGUGCUAGAGAUACUAGCAAAAGUUCCUCACAUGAGGAUCACCCAUGUAGAAGGCUGUCCUAUCG", "MS2 coat protein", 214),
]

###

# Tested on: MS2 coat protein
# assay.remarks: apparent Kd, MS2 coat protein; higher = weaker binding; RNA-MaP array; FMN 200 µM where present
# particulars: ligand present: flavin mononucleotide; designed as: ON switch for flavin mononucleotide
readout.kind: apparent Kd (nM)

# biopolymer.sequence, test.system, readout.kind, assay.value
rows = [
    ("GAGUAGUUGAAAGGAUAUUGAUUGUUAUAGAAUCAAGAAGGUUCUAACAUGAGGAUCACCCAUGUAGGACUAUUCCUGUGUAUC", "MS2 coat protein", "apparent Kd", 9.66),
    ("GUGGUUGUCGUAGGAUAUGUAGGAUAUUCCUACAUGAGGAUCACCCAUGUUCGCAUGGAAGAAUGACAGAAGGACGAUGACCAU", "MS2 coat protein", "apparent Kd", 82.6),
    ("CUUUUAUAAUAGAAGGUAGACUUCAUGAGGAUCACCCAUGUGUUGGUACUAAGGAUAUGUAGUAACAUGAGGAUCACCCAUGUU", "MS2 coat protein", "apparent Kd", 22.2),
]

###

# Tested on: MS2 coat protein
# assay.remarks: apparent Kd, MS2 coat protein; higher = weaker binding; RNA-MaP array
# particulars: ligand present: flavin mononucleotide; designed as: ON switch for flavin mononucleotide
readout.kind: apparent Kd (nM)

# biopolymer.sequence, test.system, readout.kind, assay.value
records = [
    ("ACUCCCGCAGAAGGAUAUCCUGACUGAACGAUCGACAUGAGGAUCACCCAUGUGUCUCCGUCGAGGGAGAAGGUCUGCUGUGAC", "MS2 coat protein", "apparent Kd", 7.98),
    ("AUUAUGCAGUGAGAGGAUAUCAUCGAUAAGACAUGAGGAUCACCCAUGUGUGUCAGGGUUACACAUGAGAAGGCUCACCAAACUUU", "MS2 coat protein", "apparent Kd", 7.49),
    ("CUAGGCGUGCAGAAGGCGGAAAUAUUUCGUGGCCGAGGAUAUGCUGAUAUAUCGCAAGUGACAUGAGGAUCACCCAUGUGUCUA", "MS2 coat protein", "apparent Kd", 14.2),
    ("UCGGCUUCCCAAGGAUAUGAGGUGCUUAUCGACAUGAGGAUCACCCAUGUAAAACUAGCUGCCAUUCAGAAGGUGGACACGCGC", "MS2 coat protein", "apparent Kd", 7.78),
    ("AACAUGAGGAUCACCCAUGUACACUCAAUUCGGUAUCGCUGCAAGGAUAUUCGCGUUGGAUACAUGAAGAAGGUGCCCGUACCG", "MS2 coat protein", "apparent Kd", 12.5),
    ("AAACAGAGCAGAGGAUAUAUGAUAUGCCGAACAUGAGGAUCACCCAUGUCUUCGCGUAGCGCCCCAUAGAAGGCUGAUAGCAAC", "MS2 coat protein", "apparent Kd", 14),
    ("CUGUUACAUGAGGAUCACCCAUGUGAGCGGUUGCUAGGAUAUCGCCAUUGGUGGUUCGGACGAGAAGGAGCUAAAA", "MS2 coat protein", "apparent Kd", 67.2),
    ("UCAGGACAUGAGGAUCACCCAUGUUGUCAAACCAAAGGAUAUAGGCUGAUCGAAAGAGAACUAGAAGGUUGCGAUU", "MS2 coat protein", "apparent Kd", 15.6),
    ("GUGGCACUCCUAGGAUAUUCACCUUGCGUAGAAAGACAUGAGGAUCACCCAUGUGUCUCUUAUUUGAAGAAGGAGGAACCUCGG", "MS2 coat protein", "apparent Kd", 13),
    ("CGUCCACAUGAGGAUCACCCAUGUACACGCGAUCAAGGAUAUCGCGAUAACACAAUAGUGCGAGAAGGUGAUGUAC", "MS2 coat protein", "apparent Kd", 79.6),
    ("AGCCGUUGGGAUAGACAUGAGGAUCACCCAUGUAAAAGCGAAGAGGAUAUCAGAAUUAAGACAACAGAGAAGGCAUAAAUACAA", "MS2 coat protein", "apparent Kd", 28.3),
    ("UGUCGAUGAUCCAAGGAUAUAUGGAUGCUGACAUGAGGAUCACCCAUGUCCCGAGAAAUCAUUAAAUAGAAGGUGGGCUAUGGCAA", "MS2 coat protein", "apparent Kd", 21.2),
    ("GUAAGACAAGGCAAGGAUAUGCCCUAAUGGACAUGAGGAUCACCCAUGUGGUUGCAUAAUCAAAAGCAGAAGGUGCUACAACACGG", "MS2 coat protein", "apparent Kd", 38.8),
    ("GCUCUAAGGGAGAAGGUCAUGUCGCAUCUUAGCGUUCACAUGAGGAUCACCCAUGUUAACUGUGUGAAGGAUAUCCUAGGCUGU", "MS2 coat protein", "apparent Kd", 125),
]
